Numbers sourced from ChEMBL document CHEMBL1157547.

Assay: Selectivity ratio of IC50 for human purine nucleoside phosphorylase to IC50 for Schistosoma mansoni purine nucleoside phosphorylase
readoutLabel: Ratio IC50

Completed entries (count: 3):
molecule	Ratio IC50
Nc1nc2c(Cc3cccnc3)c[nH]c2c(=O)[nH]1 [PELDESINE]	0.25
Nc1ncnc2c1ccn2[C@H]1O[C@@H](CO)[C@H](O)[C@@H]1O	1.5
Nc1nc2c(Cc3ccncc3)c[nH]c2c(=O)[nH]1	0.033

Next up:
Data point: Nc1nc2c(Cc3cccc(Cl)c3)c[nH]c2c(=O)[nH]1 ; Ratio IC50 = 0.1

---

This listing pairs compounds with measured pIC50.
Assay: Inhibition of Schistosoma mansoni purine nucleoside phosphorylase
Notebook: values listed as pIC50 are -log10 of the concentration (mol/L).

Here is how some compounds turned out for pIC50.
cpdSmiles	valueObserved
Nc1nc2c(Cc3ccncc3)c[nH]c2c(=O)[nH]1	5.52
Nc1ncnc2c1ccn2[C@H]1O[C@@H](CO)[C@H](O)[C@@H]1O	3.70
O=c1nc[nH]c2c([C@H]3O[C@@H](CO)[C@H](O)[C@@H]3O)[nH]nc12	4.33
Nc1nc2c(Cc3cccnc3)c[nH]c2c(=O)[nH]1	6.10
Nc1nc2c(ccn2[C@H]2O[C@@H](CO)[C@H](O)[C@@H]2O)c(=S)[nH]1	4.02
Nc1nc2c(Cc3ccc(OCc4ccccc4)cc3)c[nH]c2c(=O)[nH]1	6.30

# pIC50 of Nc1nc2c(Cc3ccccc3)c[nH]c2c(=O)[nH]1 = 5.85

The reported value for CC(C)c1ccc(Cc2c[nH]c3c(=O)[nH]c(N)nc23)cc1 in terms of pIC50 is 6.82

# pIC50 (compound: Nc1nc2c(Cc3cccc(Cl)c3)c[nH]c2c(=O)[nH]1 ) is 6.30

For record Nc1nc2c(Cc3ccccn3)c[nH]c2c(=O)[nH]1 the listed pIC50 is 5.15

---

Test: Selectivity ratio of IC50 for human purine nucleoside phosphorylase to IC50 for Schistosoma mansoni purine nucleoside phosphorylase
readoutLabel: Ratio IC50

Example results:
cpdSmiles	Ratio IC50
Nc1nc2c(Cc3ccccn3)c[nH]c2c(=O)[nH]1	0.003
Nc1nc2c(ccn2[C@H]2O[C@@H](CO)[C@H](O)[C@@H]2O)c(=S)[nH]1	3.3
CC(C)c1ccc(Cc2c[nH]c3c(=O)[nH]c(N)nc23)cc1	1.8

Sure, the documented Ratio IC50 for O=c1nc[nH]c2c([C@H]3O[C@@H](CO)[C@H](O)[C@@H]3O)[nH]nc12 is 6.4

Note to self: Ratio IC50 recorded for Nc1nc2c(Cc3ccc(OCc4ccccc4)cc3)c[nH]c2c(=O)[nH]1 was 0.6

---

Target: Purine nucleoside phosphorylase (Homo sapiens)
Sequence (P00491 whole entry): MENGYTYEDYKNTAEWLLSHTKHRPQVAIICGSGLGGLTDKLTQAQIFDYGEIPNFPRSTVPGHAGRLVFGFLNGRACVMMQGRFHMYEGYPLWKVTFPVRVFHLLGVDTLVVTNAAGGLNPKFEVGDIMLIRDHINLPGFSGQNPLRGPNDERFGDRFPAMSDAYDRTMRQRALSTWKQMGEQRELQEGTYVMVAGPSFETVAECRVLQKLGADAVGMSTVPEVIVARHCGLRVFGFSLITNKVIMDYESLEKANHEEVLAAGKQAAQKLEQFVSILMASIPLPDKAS
readoutLabel: pIC50
Here pIC50 is given on a logarithmic scale as minus log10 of the concentration in mol/L.

Some entries whose results are on file:
cpdSmiles	pIC50
Nc1nc2c(Cc3ccncc3)c[nH]c2c(=O)[nH]1	7.00
Nc1nc2c(Cc3ccccn3)c[nH]c2c(=O)[nH]1	7.64
Nc1nc2c(ccn2[C@H]2O[C@@H](CO)[C@H](O)[C@@H]2O)c(=S)[nH]1	3.50
O=c1nc[nH]c2c([C@H]3O[C@@H](CO)[C@H](O)[C@@H]3O)[nH]nc12	3.52
Nc1ncnc2c1ccn2[C@H]1O[C@@H](CO)[C@H](O)[C@@H]1O	3.52

pIC50 reading for Nc1nc2c(Cc3ccc(OCc4ccccc4)cc3)c[nH]c2c(=O)[nH]1 : 6.52

Recorded pIC50 (compound Nc1nc2c(Cc3cccc(Cl)c3)c[nH]c2c(=O)[nH]1 ): 7.30
